# Test system: LZK
# Construct: gene MAP3K13
# test-settings: concentration: 1 μM, replicates: in singlicate; n = 1;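 also: KINOMEscan kinase panel screen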
quantity-name: %Inh (%)
Write the value in % as a bare number.

>  <compound>
c1ccc(Oc2ccc(Nc3ccnc4cc(-c5ccc(CN6CCCCC6)o5)ccc34)cc2)nc1 [GW567143]

>  <unit-of-measure>
%

>  <assay-value>
12

$$$$
>  <compound>
Cn1cc(-c2ccc3c(c2)CCN3C(=O)Cc2cc(F)cc(C(F)(F)F)c2)c2c(N)ncnc21 [GSK2635225]

>  <unit-of-measure>
%

>  <assay-value>
3

$$$$
>  <compound>
CS(=O)(=O)c1cccc(CNc2nc(Nc3ccc4c(c3)CCC(=O)N4)ncc2C(F)(F)F)c1

>  <unit-of-measure>
%

>  <assay-value>
0

$$$$
>  <compound>
CC(C)(C)c1ccc(C(=O)Nc2cn3cc(-n4ccnc4)ccc3n2)cc1

>  <unit-of-measure>
%

>  <assay-value>
0

$$$$
>  <compound>
COc1cccc(CC(=O)N2CCc3cc(-c4cn(C)c5ncnc(N)c45)ccc32)c1 [GSK2608899]

>  <unit-of-measure>
%

>  <assay-value>
0

$$$$
>  <compound>
CNc1nccc(-c2ccc3c(N)n[nH]c3c2)n1 [GSK2206003]

>  <unit-of-measure>
%

>  <assay-value>
0

$$$$

### Prompt Sample COC(=O)Nc1nc2ccc(Oc3ccc(NC(=O)Nc4cc(C(F)(F)F)ccc4F)cc3)cc2[nH]1.Cl [GW654607] — what was its %Inh?
### Response 0

### Prompt Try Nc1ncc(-c2cn[nH]c2)c2scc(-c3ccc4c(c3)CCN4C(=O)Cc3ccccc3)c12 [GSK2593067] next.
### Response 0

----------
Recorded %Inh, one value per entry.
# Tested on: TAOK3
# test-settings: concentration: 1 μM, replicates: in singlicate; n = 1
Field: numeric (%). Do not append units.

Worked set:
>  <compound>
COc1cc(Nc2nccc(N3CCC(NC(=O)Nc4ccc5c(c4)OCO5)C3)n2)cc(OC)c1OC (stereo not shown)

>  <quantity-name>
%Inh

>  <assay-value>
0

$$$$
>  <compound>
Cl.O=C(Nc1ccc(Oc2ccc3[nH]c(NC(=O)c4ccco4)nc3c2)cc1)Nc1cc(C(F)(F)F)ccc1F

>  <quantity-name>
%Inh

>  <assay-value>
0

$$$$

### Prompt # input compound: NCCC(NC(=O)c1cc(Br)c(-c2ccnc3[nH]ccc23)s1)c1ccccc1.O=C(O)C(F)(F)F.O=C(O)C(F)(F)F (stereo not shown) ; wanted: its %Inh
### Response 0

### Prompt What do you have for Nc1ncnc2scc(-c3ccc(NC(=O)Cc4cc(F)ccc4F)cc3)c12.O=C(O)C(F)(F)F ?
### Response 0

### Prompt Queued: O=C(O)C(F)(F)F.O=c1[nH]ccc2nc(N[C@@H]3CCNC3)nc(Nc3cc(Cl)cc(Cl)c3)c12
### Response 18

### Prompt Please do the same for Cn1cc(-c2ccc3c(c2)CCN3C(=O)Cc2cc(F)cc(C(F)(F)F)c2)c2c(N)ncnc21 as well.
### Response 0

### Prompt What do we get for CSc1ccc(NC2=C(c3ccc(Cl)cc3)C(=O)NC2=O)cc1 ?
### Response 0

----------
# Test system: FAK
# Construct: gene PTK2
# test-settings: concentration: 1 μM, replicates: in singlicate; n = 1
quantity-name: %Inh (%)
Numeric answer only, unit % assumed.

### Prompt Endpoint output: %Inh of Cl.N#CCc1ccc(Nc2nccc(Nc3ccc(Oc4ccccc4)cc3)n2)cc1 [GW639905] . Value?
### Response 0

----------
# System: NEK2
# test-settings: concentration: 1 μM, replicates: in singlicate; n = 1
quantity-name: %Inh (%)
# number only, unit % dropped from output

Some compounds with recorded %Inh:
>  <compound>
COc1cccc2c(-c3ccncc3)c(-c3ccc(F)cc3)nn12 [GW468513]

>  <%Inh [%]>
0

$$$$
>  <compound>
CCOc1nccc(-c2c(-c3ccc(F)cc3)ncn2C2CCNCC2)n1 [SB-249175]

>  <%Inh [%]>
0

$$$$
>  <compound>
COc1ccc(NC(=O)c2ccoc2)cc1-c1ccc(C(=O)NCC2CC2)cc1 [GW810437]

>  <%Inh [%]>
0

$$$$
>  <compound>
CCn1c(-c2nonc2N)nc2c(-c3ccccc3)ncc(OCCCN)c21.O=C(O)C(F)(F)F.O=C(O)C(F)(F)F [GSK260205]

>  <%Inh [%]>
1

$$$$

### Prompt Which value of %Inh has been reported for CSc1ccc(NC2=C(c3ccc(Cl)cc3)C(=O)NC2=O)cc1 [SB-317658] in the records?
### Response 0

### Prompt Moving on to CN(C)CCNS(=O)(=O)c1ccc(-c2ccnc3[nH]ccc23)cc1 [GSK977620]
### Response 0

### Prompt Similarly, Fc1cc(Cl)ccc1Nc1ccnc2cc(-c3ccc(CN4CCOCC4)o3)ccc12 [GW560109] ?
### Response 13

### Prompt Repeat with Nc1cccc(-c2ccc3c(N)n[nH]c3c2)c1 [GSK2193613]
### Response 11

----------
# Tested on: SBK1
# test-settings: concentration: 1 μM, replicates: in singlicate; n = 1
Mark YES only when %Inh stays strictly below 10%. Values equal to the cut-off are NO.

### Prompt Threshold test, %Inh < 10%: Cl.Cl.NCC(NC(=O)c1cc(-c2cccnc2)c(-c2ccnc3[nH]ccc23)s1)c1ccccc1 (stereo not drawn)
### Response NO

----------
# Tested on: SIK
# test-settings: concentration: 1 μM, replicates: in singlicate; n = 1
%Inh overview
Expressed in %, but write only the number.

Recorded %Inh, per entry:
>  <compound>
O=C(Nc1n[nH]c2nc(-c3ccccc3O)ccc12)C1CC1

>  <unit-of-measure>
%

>  <%Inh>
0

$$$$
>  <compound>
COc1cccc2c(-c3ccncc3)c(-c3ccc(F)cc3)nn12

>  <unit-of-measure>
%

>  <%Inh>
0

$$$$
>  <compound>
CNc1nccc(-c2ccc3c(N)n[nH]c3c2)n1

>  <unit-of-measure>
%

>  <%Inh>
0

$$$$
>  <compound>
CC(C)NCC(Cc1ccccc1)NC(=O)c1cc(Br)c(-c2ccnc3[nH]ccc23)s1.Cl.Cl (stereo not drawn)

>  <unit-of-measure>
%

>  <%Inh>
4

$$$$
>  <compound>
Cc1ccc(NC(=O)c2ccc(Cl)c(Cl)c2)cc1-c1ccc(C(=O)Nc2ccncc2)cc1

>  <unit-of-measure>
%

>  <%Inh>
8

$$$$
>  <compound>
CSc1ccc(NC2=C(c3ccc(Cl)cc3)C(=O)NC2=O)cc1

>  <unit-of-measure>
%

>  <%Inh>
25

$$$$
>  <compound>
Cc1cc(-c2ccnc(Nc3cccc(C#N)c3)n2)cc(C)c1O

>  <unit-of-measure>
%

>  <%Inh>
0

$$$$
>  <compound>
CN(C)c1ncnc2nc[nH]c12

>  <unit-of-measure>
%

>  <%Inh>
0

$$$$

### Prompt Please tell me: %Inh of Cc1ccc(NC(=O)c2cccc(N3CCCCC3)c2)cc1-c1ccc(C(=O)NCC2CC2)cc1 , system SIK?
### Response 8

### Prompt Similarly, COc1cccc(CC(=O)N2CCc3cc(-c4cn(C)c5ncnc(N)c45)ccc32)c1 ?
### Response 17

### Prompt // query: c1ccc(Oc2ccc(Nc3ccnc4cc(-c5ccc(CN6CCCCC6)o5)ccc34)cc2)nc1
### Response 97.4

### Prompt Similarly, O=C(Nc1n[nH]c2cc(-c3cccs3)ccc12)C1CC1 ?
### Response 0

### Prompt What would you report for COc1cc(Nc2ccnc3cc(-c4ccncc4)ccc23)cc(OC)c1OC.Cl ?
### Response 91.5

### Prompt Nc1ncc(-c2ccc3nccc(-c4ccncc4)c3c2)cc1S(=O)(=O)N1CCCCC1 , same question.
### Response 0

### Prompt Same again, this time with Cc1nn2c(=O)cc(N3CCO[C@H](C)C3)nc2n1Cc1cccc(Cl)c1Cl
### Response 0

### Prompt What about this compound? O=C(O)C(F)(F)F.O=c1[nH]ccc2nc(N[C@@H]3CCNC3)nc(Nc3ccc4c(c3)S(=O)(=O)CC4)c12
### Response 18

### Prompt Moving on to CN(c1ccc(F)c(NC(=O)c2cccc(OC(C)(C)C#N)c2Cl)c1)c1ccc2nc(NC(=O)C3CC3)sc2n1
### Response 97

### Prompt Proceed to O=C1NC(=O)C(c2ccccc2Cl)=C1Nc1cccc(Cl)c1
### Response 5

----------
# Test system: RSK3(Kin.Dom.1-N-terminal)
# Construct: gene RPS6KA2
# test-settings: concentration: 1 μM, replicates: in singlicate; n = 1
Threshold 20%: %Inh strictly smaller gives t, otherwise f.

>  <chemical-structure>
O=C(O)C(F)(F)F.O=c1[nH]ccc2nc(N[C@@H]3CCNC3)nc(Nc3ccc4c(c3)S(=O)(=O)CC4)c12

>  <target-entity>
RSK3(Kin.Dom.1-N-terminal)

>  <label-class>
f

$$$$
>  <chemical-structure>
CN(c1ccc(NC(=O)N2CCN(CCCN3CCOCC3)CC2)cc1)c1ccnc(Nc2ccc(CS(C)(=O)=O)cc2)n1.Cl

>  <target-entity>
RSK3(Kin.Dom.1-N-terminal)

>  <label-class>
t

$$$$
>  <chemical-structure>
COc1cccc(CC(=O)N2CCc3cc(-c4cn(C)c5ncnc(N)c45)ccc32)c1

>  <target-entity>
RSK3(Kin.Dom.1-N-terminal)

>  <label-class>
f

$$$$
>  <chemical-structure>
Cl.O=C(Nc1ccc(Oc2ccc3[nH]c(NC(=O)c4ccco4)nc3c2)cc1)Nc1cc(C(F)(F)F)ccc1F

>  <target-entity>
RSK3(Kin.Dom.1-N-terminal)

>  <label-class>
f

$$$$
>  <chemical-structure>
O=C(Nc1n[nH]c2nc(-c3cccc(O)c3)ccc12)C1CC1

>  <target-entity>
RSK3(Kin.Dom.1-N-terminal)

>  <label-class>
t

$$$$

### Prompt Does the reported %Inh of COc1ccc(C)c(Nc2ccnc(Nc3ccc(-c4cnc[nH]4)cc3)n2)c1.Cl stay below 20%?
### Response t

### Prompt And then N#CC1(c2cccc(C(=O)Nc3cccc(Oc4ccc5nc(NC(=O)C6CC6)sc5n4)c3)c2)CC1 , what is it?
### Response f
